biological target: Period circadian protein homolog 2 (Homo sapiens, UniProt O15055); experiment: Reduction of amplitude effect of PER2 in human U2OS cells harboring Per2-dLuc luciferase reporter gene assessed as effects on circadian rhythms
Exam item: assign YES to entries whose EC50 is below 400 nM and NO to entries at or above 400 nM. Note that a value of exactly 400 nM receives NO.

MOLECULE	ASSIGNED LABEL
CS(=O)(=O)N(CC(O)Cn1c2ccccc2c2ccccc21)c1ccccc1F (centres undefined)	NO

Exercise: In plain terms, does CS(=O)(=O)N(CC(O)Cn1c2ccccc2c2ccccc21)c1ccccn1 (centres undefined) come in under 400 nM for EC50?
Solution: NO

Exercise: In plain terms, does O=S(=O)(C1CC1)N(Cc1ccco1)CC(O)Cn1c2ccccc2c2ccccc21 (centres undefined) come in under 400 nM for EC50?
Solution: NO

---

Biological target: Period circadian protein homolog 2 (Homo sapiens, UniProt O15055)
Sequence (O15055 whole entry): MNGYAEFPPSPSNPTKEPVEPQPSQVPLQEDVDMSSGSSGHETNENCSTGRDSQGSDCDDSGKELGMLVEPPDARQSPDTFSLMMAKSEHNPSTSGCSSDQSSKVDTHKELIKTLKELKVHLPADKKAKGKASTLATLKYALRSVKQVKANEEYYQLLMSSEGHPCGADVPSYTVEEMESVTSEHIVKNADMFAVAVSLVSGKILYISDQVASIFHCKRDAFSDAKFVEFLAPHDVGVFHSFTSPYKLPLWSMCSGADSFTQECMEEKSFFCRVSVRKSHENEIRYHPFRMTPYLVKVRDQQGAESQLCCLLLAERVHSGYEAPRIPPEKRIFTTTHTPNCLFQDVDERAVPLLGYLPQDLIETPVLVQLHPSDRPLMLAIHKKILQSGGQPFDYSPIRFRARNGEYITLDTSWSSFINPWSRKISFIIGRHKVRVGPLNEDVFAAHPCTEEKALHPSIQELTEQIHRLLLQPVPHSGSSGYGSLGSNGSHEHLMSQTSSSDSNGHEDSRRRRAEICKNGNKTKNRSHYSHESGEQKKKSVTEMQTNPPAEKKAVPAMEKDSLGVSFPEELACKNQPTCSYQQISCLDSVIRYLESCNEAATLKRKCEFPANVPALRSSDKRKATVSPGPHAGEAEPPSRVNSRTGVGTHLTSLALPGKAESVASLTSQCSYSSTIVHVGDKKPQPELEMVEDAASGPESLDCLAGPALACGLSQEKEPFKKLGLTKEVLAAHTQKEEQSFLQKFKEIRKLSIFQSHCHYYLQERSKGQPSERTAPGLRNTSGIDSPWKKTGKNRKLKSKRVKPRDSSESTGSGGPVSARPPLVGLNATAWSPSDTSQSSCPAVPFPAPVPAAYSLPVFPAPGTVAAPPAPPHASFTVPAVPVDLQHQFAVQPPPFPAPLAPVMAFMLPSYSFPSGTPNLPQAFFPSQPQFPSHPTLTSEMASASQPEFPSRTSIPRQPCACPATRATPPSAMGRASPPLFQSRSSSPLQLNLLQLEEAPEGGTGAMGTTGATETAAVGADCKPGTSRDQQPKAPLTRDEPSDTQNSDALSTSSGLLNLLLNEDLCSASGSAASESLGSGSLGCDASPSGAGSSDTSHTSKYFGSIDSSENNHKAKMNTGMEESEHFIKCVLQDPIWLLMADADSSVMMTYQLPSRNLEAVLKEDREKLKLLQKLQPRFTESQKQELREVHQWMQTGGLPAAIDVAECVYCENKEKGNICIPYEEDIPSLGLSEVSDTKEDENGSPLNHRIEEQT
Test: Reduction of amplitude effect of PER2 in human U2OS cells harboring Per2-dLuc luciferase reporter gene assessed as effects on circadian rhythms
PROPERTY LABEL: EC50 (nM)
Express your answer in nM, writing the number without its unit.

Here's what some known entries look like.
COMPOUND	UNITS SYMBOL	MEAS VALUE
O=S(=O)(C1CCCCC1)N(Cc1ccco1)CC(O)Cn1c2ccccc2c2ccccc21 (stereo not given)	nM	1000
O=S1(=O)NCCCN1CC(O)Cn1c2ccccc2c2ccccc21 (stereo not given)	nM	384
CC(C)CS(=O)(=O)N(Cc1ccco1)CC(O)Cn1c2ccccc2c2ccccc21 (stereo not given)	nM	361
O=S1(=O)CCN1CC(O)Cn1c2ccccc2c2ccccc21 (stereo not given)	nM	190
COCCS(=O)(=O)N(Cc1ccco1)CC(O)Cn1c2ccccc2c2ccccc21 (stereo not given)	nM	288
O=S(=O)(C1CCOC1)N(Cc1ccco1)CC(O)Cn1c2ccccc2c2ccccc21 (stereo not given)	nM	1180

Exercise: Item O=S(=O)(Cc1ccccc1)N(Cc1ccco1)CC(O)Cn1c2ccccc2c2ccccc21 (stereo not given) has what recorded EC50?
Solution: 415

Exercise: Item O=S1(=O)COCCN1CC(O)Cn1c2ccccc2c2ccccc21 (stereo not given) has what recorded EC50?
Solution: 73

Exercise: Item CS(=O)(=O)N(CC(O)Cn1c2ccccc2c2ccccc21)C1CCCCC1 (stereo not given) has what recorded EC50?
Solution: 532

Exercise: Item O=S(=O)(c1ccccc1)N(Cc1ccco1)CC(O)Cn1c2ccccc2c2ccccc21 (stereo not given) has what recorded EC50?
Solution: 1090
